test system: Staphylococcus aureus; assay: Minimum inhibitory activity against Staphylococcus aureus A15091; assay type: functional
Measurement name: MIC (µg/mL)
Give the value, in units of µg/mL, as a plain number.

Solved entries (count: 4):
Quickly give me recorded MIC for CC1(C)S[C@@H]2[C@H](NC(=O)[C@H](N)c3ccc(O)cc3)C(=O)N2[C@H]1C(=O)O.CC1(C)[C@H](C(=O)O)N2C(=O)C[C@H]2S1(=O)=O
2

Given the compound C[C@]1(CCl)[C@H](C(=O)[O-])N2C(=O)C[C@H]2S1(=O)=O.[K+] , write its reported MIC.
125

Consider the compound O=C(O)[C@H]1/C(=C/CO)O[C@@H]2CC(=O)N21 . State its measured MIC.
32

Consider the compound CC1(C)S[C@@H]2[C@H](NC(=O)[C@H](N)c3ccc(O)cc3)C(=O)N2[C@H]1C(=O)O.O=C(O)[C@H]1/C(=C/CO)O[C@@H]2CC(=O)N21 . State its measured MIC.
2

Now look at this one.
Consider the compound CC1(C)S[C@@H]2[C@H](NC(=O)[C@H](N)c3ccc(O)cc3)C(=O)N2[C@H]1C(=O)O.C[C@]1(CCl)[C@H](C(=O)[O-])N2C(=O)C[C@H]2S1(=O)=O.[K+] . State its measured MIC.
1

----------
biological target: Beta lactamase TEM-1 (Klebsiella pneumoniae); experiment: Beta-lactamase inhibitory activity from Klebsiella pneumoniae A20634(TEM) and minimum protective concentration was reported; type: functional
Measurement name: MPC (µg/mL)
# value in µg/mL; strip the unit string

Below, each entry is followed by its recorded MPC result.
Write down measured MPC (Beta lactamase TEM-1 (Klebsiella pneumoniae)) for this molecule. C[C@]1(CCl)[C@H](C(=O)[O-])N2C(=O)C[C@H]2S1(=O)=O.[K+]
3.1

Consider the molecule COc1cccc(OC)c1C(=O)N[C@@H]1C(=O)N2[C@@H](C(=O)O)C(C)(C)S(=O)(=O)[C@H]12 tested on Beta lactamase TEM-1 (Klebsiella pneumoniae); state its MPC.
125

Quote MPC with test system Beta lactamase TEM-1 (Klebsiella pneumoniae) for CC1(C)C(C(=O)O)N2C(=O)C(Cl)C2S1(=O)=O (stereo not given)
25

Give MPC for this entry on Beta lactamase TEM-1 (Klebsiella pneumoniae): O=C(O)[C@H]1/C(=C/CO)O[C@@H]2CC(=O)N21
0.1

Let's switch to this molecule now.
# assay system Beta lactamase TEM-1 (Klebsiella pneumoniae): give MPC of CC1(C)[C@H](C(=O)O)N2C(=O)C[C@H]2S1(=O)=O
1.6

----------
tested on: Staphylococcus aureus; test: Minimum inhibitory activity against Staphylococcus aureus A9606; format: functional
Examples of compounds with documented MIC follow.
Enter your answer as a number in µg/mL; do not include the unit.

Supply measured MIC of O=C(O)[C@H]1/C(=C/CO)O[C@@H]2CC(=O)N21 [CLAVULANIC ACID] in your reply.
32

Note down MIC recorded for CC1(C)S[C@@H]2[C@H](NC(=O)[C@H](N)c3ccc(O)cc3)C(=O)N2[C@H]1C(=O)O.O=C(O)[C@H]1/C(=C/CO)O[C@@H]2CC(=O)N21
2

For C[C@]1(CCl)[C@H](C(=O)[O-])N2C(=O)C[C@H]2S1(=O)=O.[K+] [BL-P2013] , write its MIC.
125

---
Fill in reported MIC for this entry: CC1(C)S[C@@H]2[C@H](NC(=O)[C@H](N)c3ccc(O)cc3)C(=O)N2[C@H]1C(=O)O.C[C@]1(CCl)[C@H](C(=O)[O-])N2C(=O)C[C@H]2S1(=O)=O.[K+] [AMOXACILLIN +BL-P2013]
1

Given the compound CC1(C)S[C@@H]2[C@H](NC(=O)[C@H](N)c3ccc(O)cc3)C(=O)N2[C@H]1C(=O)O.CC1(C)[C@H](C(=O)O)N2C(=O)C[C@H]2S1(=O)=O , write its reported MIC.
2

----------
Recorded ED50, one value per entry.
species: Mus musculus; assay: Beta-lactamase inhibitory activity against Escherichia coli A21223 using oral mouse protection test in mice; format: functional; details: read-out: PD50

Identify ED50 associated with the compound C[C@]1(CCl)[C@H](C(=O)[O-])N2C(=O)C[C@H]2S1(=O)=O.[K+]
> 200 mg/kg

***
Look up ED50 of CC1(C)S[C@@H]2[C@H](NC(=O)[C@H](N)c3ccc(O)cc3)C(=O)N2[C@H]1C(=O)O and report it.
> 200 mg/kg

Answer with the recorded ED50 of CC1(C)S[C@@H]2[C@H](NC(=O)[C@H](N)c3ccc(O)cc3)C(=O)N2[C@H]1C(=O)O.C[C@]1(CCl)[C@H](C(=O)[O-])N2C(=O)C[C@H]2S1(=O)=O.[K+] only.
16 mg/kg

Recall and state the measured ED50 for CC1(C)S[C@@H]2[C@H](NC(=O)[C@H](N)c3ccc(O)cc3)C(=O)N2[C@H]1C(=O)O.CC1(C)[C@H](C(=O)O)N2C(=O)C[C@H]2S1(=O)=O .
46 mg/kg

Respond only with ED50 recorded for CC1(C)[C@H](C(=O)O)N2C(=O)C[C@H]2S1(=O)=O
> 200 mg/kg

----------
molecular target: Beta-lactamase (Staphylococcus aureus) (UniProt P00807); assay: Beta-lactamase inhibitory activity from Staphylococcus aureus A9606 and minimum protective concentration was reported; type: functional
Sequence (P00807 whole entry): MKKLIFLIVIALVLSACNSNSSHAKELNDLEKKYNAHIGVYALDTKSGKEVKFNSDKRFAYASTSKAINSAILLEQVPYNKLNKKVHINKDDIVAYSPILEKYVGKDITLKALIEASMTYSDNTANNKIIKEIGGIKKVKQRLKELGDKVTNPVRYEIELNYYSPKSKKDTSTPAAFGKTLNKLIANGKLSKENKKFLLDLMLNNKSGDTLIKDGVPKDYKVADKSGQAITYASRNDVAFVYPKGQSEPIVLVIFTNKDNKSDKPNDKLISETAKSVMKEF
The following compounds are listed with their measured MPC values.
Answer format: numeric, µg/mL implied, no suffix.

Specify reported MPC for the compound shown: O=C(O)[C@H]1/C(=C/CO)O[C@@H]2CC(=O)N21
0.4

Give the measured MPC for C[C@]1(CCl)[C@H](C(=O)[O-])N2C(=O)C[C@H]2S1(=O)=O.[K+]
3.1

# context switch: different compound, same MPC
Identify MPC associated with the compound CC1(C)[C@H](C(=O)O)N2C(=O)C[C@H]2S1(=O)=O
12.5

----------
species: Mus musculus; assay: Beta-lactamase inhibitory activity against Staphylococcus aureus A20379 using oral mouse protection test in mice; format: functional; settings: read-out: PD50
Listed next: entries and their corresponding ED50.

Consider the worked cases shown below.
Return reported ED50. Input compound: C[C@]1(CCl)[C@H](C(=O)[O-])N2C(=O)C[C@H]2S1(=O)=O.[K+]
> 200 mg/kg

# return recorded ED50 for entry CC1(C)[C@H](C(=O)O)N2C(=O)C[C@H]2S1(=O)=O
> 200 mg/kg

Proceeding to the next compound to report its ED50.
Give a short answer stating reported ED50 for CC1(C)S[C@@H]2[C@H](NC(=O)[C@H](N)c3ccc(O)cc3)C(=O)N2[C@H]1C(=O)O .
> 200 mg/kg
